Parameter: pEC50. Scope: all listed entries.
Tested on: Erk phosphorylation in Panc10.05 (G12D) cells
Assay: In-Cell Western Erk phosphorylation
Format: cell-based
Details: EC50, one hour treatment; read-out: In-Cell Western Erk phosporylation Panc10.05 (G12D)
pEC50: −log10 of the molar value.
readoutLabel: pEC50

[[record]]
smiles = "COCCOc1nc(C)c(C(=O)Nc2nc(-c3ccc4c(c3)CCC(=O)N4)cs2)s1"
comparisonsign = "="
reportedresult = 5.10

[[record]]
smiles = "Cc1nc(C)c(C(=O)N(Cc2ccccc2)c2nc(-c3ccc4c(c3)CCC(=O)N4Cc3ccccc3)cs2)s1"
comparisonsign = "<"
reportedresult = 4.60

[[record]]
smiles = "Cc1nc(C)c(C(=O)Nc2nc(-c3ccc4c(c3)CCC(=O)N4Cc3ccccc3)cs2)s1"
comparisonsign = "="
reportedresult = 5.70

[[record]]
smiles = "Cc1nc(N2CCOCC2)sc1C(=O)Nc1nc(-c2ccc3c(c2)CCC(=O)N3)cs1"
comparisonsign = "<"
reportedresult = 4.60

